- Test system: Candida quilliermondii DSM 11947
- measurement_notes: Antifungal activity in vitro, serial dilution in RPMI 1640
- Type: cell-based
- measurement_setup: Table 2B
Documented MIC Candida quilliermondii DSM 11947 across a set of molecules
Give just the number in µg/mL; leave the unit off.

Below, 2 molecules whose answers are already recorded.
molecule	quantity_unit	MIC Candida quilliermondii DSM 11947
CCCN(CCC)[C@@H]1[C@H](O)[C@H](O[C@H]2/C=C/C=C/C=C/C=C/CC/C=C/C=C/[C@H](C)[C@@H](O)[C@@H](C)[C@H](C)OC(=O)C[C@H](O)C[C@H](O)C[C@H](O)CC[C@@H](O)[C@H](O)C[C@]3(O)C[C@H](O)[C@@H](C(=O)O)[C@H](C2)O3)O[C@H](C)[C@H]1O [Compound N22, N,N-di-n-propylnystatin A1]	µg/mL	8
CC1OC(O[C@H]2/C=C/C=C/C=C/C=C/CC/C=C/C=C/[C@H](C)[C@@H](O)[C@@H](C)[C@H](C)OC(=O)C[C@H](O)C[C@H](O)C[C@H](O)CC[C@@H](O)[C@H](O)CC3(O)C[C@H](O)[C@@H](C(=O)O)[C@H](C2)O3)C(O)C(NC(=O)[C@H](N)CC(=O)OC(C)(C)C)C1O (stereo partly drawn) [Compound N41, N-D-(O-tert-butyl)asparagylnystatin A1]	µg/mL	8

// switching to the query molecule
Using the record for CC1OC(O[C@H]2/C=C/C=C/C=C/C=C/CC/C=C/C=C/[C@H](C)[C@@H](O)[C@@H](C)[C@H](C)OC(=O)C[C@H](O)C[C@H](O)C[C@H](O)CC[C@@H](O)[C@H](O)CC3(O)C[C@H](O)[C@@H](C(=O)O)[C@H](C2)O3)C(O)C(NC(=S)NCC(C)(C)CN(C)C)C1O (stereo partly drawn) [Compound N19] , report its MIC Candida quilliermondii DSM 11947.
4
